Target: Cytochrome P450 3A4 (Homo sapiens) (UniProt P08684)
Sequence (P08684 whole entry, looked up): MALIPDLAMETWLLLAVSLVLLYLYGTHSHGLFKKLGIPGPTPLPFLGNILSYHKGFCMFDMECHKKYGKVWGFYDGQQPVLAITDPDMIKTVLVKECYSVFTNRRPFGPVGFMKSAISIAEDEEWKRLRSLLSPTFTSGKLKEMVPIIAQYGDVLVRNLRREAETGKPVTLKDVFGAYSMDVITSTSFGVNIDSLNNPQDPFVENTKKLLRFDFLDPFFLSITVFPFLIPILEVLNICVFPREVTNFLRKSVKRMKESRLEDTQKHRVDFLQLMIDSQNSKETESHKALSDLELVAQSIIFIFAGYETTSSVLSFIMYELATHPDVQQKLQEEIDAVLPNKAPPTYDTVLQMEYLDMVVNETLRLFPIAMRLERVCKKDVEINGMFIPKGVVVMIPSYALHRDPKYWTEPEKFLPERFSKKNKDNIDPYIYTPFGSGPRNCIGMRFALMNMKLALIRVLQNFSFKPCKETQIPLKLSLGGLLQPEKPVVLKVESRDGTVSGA
Experiment: qHTS Assay for Inhibitors and Substrates of Cytochrome P450 3A4 (AID 884); note: nearly all actives have a fitted effect of over 50% in size
Conditions: recombinant CYP3A4, Luciferin-PPXE luminescence; series mostly up to 57.1 µM
Description: NIH Molecular Libraries Screening Centers Network [MLSCN] NIH Chemical Genomics Center [NCGC] The P450 gene superfamily is involved in the metabolism and clearance of xenobiotics. […] The luciferin is then measured by luminescence after the addition of a luciferase detection reagent. […] Inhibitors and some substrates limit the production of luciferin, and decrease measured luminescence. […]
Results filed as inconclusive are left out. The source made the active and inactive calls. Calls come from the whole dose curve; as a rule, active = well fitted inhibition curve with a large enough effect; inconclusive = small, poorly fitted or top-dose-only effect; inactive = no such curve, though single readings can be large or run the other way.
Return exactly one item of true = active, false = inactive

Here's what some known entries look like.
>>> classification("NCC1OC(OC2C(N)CC(N)[C@@H](O)[C@@H]2OC2O[C@H](CO)[C@@H](O[C@@H]3OC(CN)C(O)C(O)C3N)C2O)C(N)C(O)C1O (stereo partly specified)")
"false"
>>> classification("Nc1nc(O)c2ncn([C@H]3CC[C@@H](CO)O3)c2n1")
"false"

Please look at the following compound next.
Q: Assay result, entry CC(=O)Oc1ccc2c(c1OC(C)=O)OCC1(O)Cc3c(cc(OC(C)=O)c(OC(C)=O)c3OC(C)=O)C21 (stereo unspecified) — outcome?
A: false
